# credit: patent US20240239894A1

In this section we review reported kon values for a set of binders.
EXPERIMENTAL TARGET: T1, Human B7-H4 ECD-Flag-His10 (monomeric) (human, UniProt Q7Z7D3 25-259)
T1 construct: Minimally biotinylated for KinExA; also called hB7H4-ECD-Flag-His10; B7-H4-FLAG
T1 sequence: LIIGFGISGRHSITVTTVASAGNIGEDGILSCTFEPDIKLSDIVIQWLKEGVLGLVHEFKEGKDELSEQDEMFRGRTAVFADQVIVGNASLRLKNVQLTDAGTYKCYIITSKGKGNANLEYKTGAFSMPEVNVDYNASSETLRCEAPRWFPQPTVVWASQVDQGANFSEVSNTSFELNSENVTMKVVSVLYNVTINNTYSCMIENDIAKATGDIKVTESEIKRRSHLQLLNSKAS
ASSAY INFO: Octet BLI, hIgG1 on Protein G (n = 1)
READOUT LABEL: kon

INSERT INTO results (binder, readout_label, result) VALUES
  ('ZY0EO5-E07 human IgG1 (antibody, V domains shown, also called ZY0E05-E07; E05-E07) VH: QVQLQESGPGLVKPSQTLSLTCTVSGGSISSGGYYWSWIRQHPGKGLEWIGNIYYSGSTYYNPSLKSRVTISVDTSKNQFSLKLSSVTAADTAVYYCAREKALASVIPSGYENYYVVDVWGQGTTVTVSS VL: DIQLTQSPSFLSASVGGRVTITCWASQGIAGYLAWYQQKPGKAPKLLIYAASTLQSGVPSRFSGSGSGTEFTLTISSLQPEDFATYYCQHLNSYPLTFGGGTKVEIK', 'kon', '21700 M⁻¹ s⁻¹'),
  ('ZY0EQD-E02 human IgG1 (antibody, V domains shown) VH: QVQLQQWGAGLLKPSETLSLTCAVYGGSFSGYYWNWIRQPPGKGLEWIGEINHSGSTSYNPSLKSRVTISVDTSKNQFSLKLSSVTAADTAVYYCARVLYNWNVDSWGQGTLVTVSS VL: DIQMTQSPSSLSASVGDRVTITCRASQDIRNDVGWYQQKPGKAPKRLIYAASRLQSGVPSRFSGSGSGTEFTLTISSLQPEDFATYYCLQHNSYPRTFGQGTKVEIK', 'kon', '216000 M⁻¹ s⁻¹'),
  ('ZY0EP0-C07 human IgG1 (antibody, V domains shown, also called ZY0EPO-C07) VH: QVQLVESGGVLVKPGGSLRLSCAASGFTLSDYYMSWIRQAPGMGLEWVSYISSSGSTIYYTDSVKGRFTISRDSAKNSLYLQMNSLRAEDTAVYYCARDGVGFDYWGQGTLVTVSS VL: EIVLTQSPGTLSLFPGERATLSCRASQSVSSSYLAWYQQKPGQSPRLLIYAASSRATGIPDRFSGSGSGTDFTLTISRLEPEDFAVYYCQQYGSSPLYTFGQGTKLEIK', 'kon', '48800 M⁻¹ s⁻¹');
